target: HLA-A*02:01 (Homo sapiens, UniProt P04439, D140Y/D185E/D98H/E176V/E277Q/G131W/G231S/I119V/I121R/I166T/I218V/L300P/L318F/N151K/N90K/P208A/P217A/Q86G/Q94H/R138H/R169H/T345S); assay: MHC binding assay: UV-ligand exchange with beta2m ELISA (exchange yield); conditions: binding to HLA-A*02:01, β2m ELISA
Outcome Measure: Peptide exchange (MHC class I binding score, peptide exchange yield)

Example cases with answers are listed next.
                                  substance     value_reported
0  228 (AMQEYIAVV; listed as Homo sapiens) [compound 228]   “++” (≥20% = ++)
1  382 (ALQNYIKEA; listed as Homo sapiens) [compound 382]   “++” (≥20% = ++)
2  378 (ALGYFVPYV; listed as Homo sapiens) [compound 378]  “+++” (≥50 = +++)
3  578 (FLDPGGPMMKL; listed as Homo sapiens) [compound 578]  “+++” (≥50 = +++)
4  479 (SLFGNSGILENV; listed as Homo sapiens) [compound 479]  “+++” (≥50 = +++)

Given 542 (RVWDISTVSSV; listed as Homo sapiens) [compound 542] , state its recorded Peptide exchange (MHC class I binding score, peptide exchange yield).
“+++” (≥50 = +++)

Given 456 (LLIGHLERV; listed as Homo sapiens) [compound 456] , state its recorded Peptide exchange (MHC class I binding score, peptide exchange yield).
“+++” (≥50 = +++)

Given 130 (FLWNGEDSALL; listed as Homo sapiens) [compound 130] , state its recorded Peptide exchange (MHC class I binding score, peptide exchange yield).
“+++” (≥50 = +++)

Given 302 (ALLQEGEVYSA; listed as Homo sapiens) [compound 302] , state its recorded Peptide exchange (MHC class I binding score, peptide exchange yield).
“+++” (≥50 = +++)

Given 157 (SLNDEVPEV; listed as Homo sapiens) [compound 157] , state its recorded Peptide exchange (MHC class I binding score, peptide exchange yield).
“++” (≥20% = ++)

Given 247 (VLLPNDLLEKV; listed as Homo sapiens) [compound 247] , state its recorded Peptide exchange (MHC class I binding score, peptide exchange yield).
“+++” (≥50 = +++)

* * *

target: HLA-A*02:01 (Homo sapiens, UniProt P04439, D140Y/D185E/D98H/E176V/E277Q/G131W/G231S/I119V/I121R/I166T/I218V/L300P/L318F/N151K/N90K/P208A/P217A/Q86G/Q94H/R138H/R169H/T345S); test: MHC binding assay: UV-ligand exchange with beta2m ELISA (exchange yield); details: binding to HLA-A*02:01, β2m ELISA
Outcome Measure: Peptide exchange (MHC class I binding score, peptide exchange yield)

In [3]: df
Out[3]:
                                  substance        value_reported
0  464 (ALNDCIYSV; listed as Homo sapiens) [compound 464]     “+++” (≥50 = +++)
1  111 (YVWGFYPAEV; listed as Homo sapiens) [compound 111]     “+++” (≥50 = +++)
2  592 (RLLSAAENFL; listed as Homo sapiens) [compound 592]     “+++” (≥50 = +++)
3  100 (YLLSTNAQL; listed as Homo sapiens) [compound 100]  “++++” (≥75% = ++++)
4  168 (KILDADIQL; listed as Homo sapiens) [compound 168]  “++++” (≥75% = ++++)

Okay, next one:
Given 257 (SIFSAFLSV; listed as Homo sapiens) [compound 257] , state its recorded Peptide exchange (MHC class I binding score, peptide exchange yield).
“+++” (≥50 = +++)

Values from patent US10280205B2
